// provenance: the supplement of paper PMC5662767

As shown below, each of these compounds has a reported normalized SmoIP GFP fluorescence value.
- Test system: Drosophila S2 cl14 SmoIP sensor cells
- Method description: normalized SmoIP GFP fluorescence (untreated unstimulated = 0%, untreated Hh-stimulated = 100%); higher = more Smo activation sensor fluorescence
- Measurement conditions: stimulation: Hh conditioned medium (+Hh); compound concentration: 2 uM; 24 h
Where a name gives a salt, the structure may show the parent alone.
Report the figure in % without appending any unit label.

>  <Compound>
CC(C)NCC(O)COc1cccc2ccccc12 (stereo not given) [propranolol-hcl]

>  <Metric name>
normalized SmoIP GFP fluorescence

>  <Observed result>
111

$$$$
>  <Compound>
CNC(=O)c1ccccc1Sc1ccc2c(/C=C/c3ccccn3)n[nH]c2c1

>  <Metric name>
normalized SmoIP GFP fluorescence

>  <Observed result>
142

$$$$
>  <Compound>
CN(C)CC/C=C1/c2ccccc2Sc2ccc(Cl)cc21

>  <Metric name>
normalized SmoIP GFP fluorescence

>  <Observed result>
106

$$$$

Q: For the compound shown here, Cc1ccc(Sc2ccccc2N2CCNCC2)c(C)c1 , give the reported normalized SmoIP GFP fluorescence.
Result: 169

Q: Consider next the compound O=C(O)c1ccc(C=C2SC(=S)N(c3cccc(C(F)(F)F)c3)C2=O)cc1 in the same way.
Result: 121

* * *

- Test system: Drosophila S2 cl14 SmoIP sensor cells
- Method description: normalized SmoIP GFP fluorescence (untreated unstimulated = 0%, untreated Hh-stimulated = 100%); higher = more Smo activation sensor fluorescence
- Measurement conditions: stimulation: mock conditioned medium (-Hh); compound concentration: 2 uM; 24 h
As shown below, each of these compounds has a reported normalized SmoIP GFP fluorescence value.
Report the figure in % without appending any unit label.

>  <Compound>
CC(=O)S[C@@H]1CC2=CC(=O)CC[C@]2(C)[C@H]2CC[C@@]3(C)[C@@H](CC[C@@]34CCC(=O)O4)[C@H]12

>  <Unit text>
%

>  <normalized SmoIP GFP fluorescence>
-4.58

$$$$
>  <Compound>
CCCc1nn(C)c2c(=O)[nH]c(-c3cc(S(=O)(=O)N4CCN(C)CC4)ccc3OCC)nc12 [Sildenafil-citrate]

>  <Unit text>
%

>  <normalized SmoIP GFP fluorescence>
-1.88

$$$$
>  <Compound>
CN1CCN(C2CCN(C(=O)Nc3cc(Oc4ccc(NC(=O)C5(C(=O)Nc6ccc(F)cc6)CC5)c(F)c4)ccn3)CC2)CC1

>  <Unit text>
%

>  <normalized SmoIP GFP fluorescence>
12.5

$$$$

Q: For the compound shown here, CCOC(=O)c1ccc(N2NC(=O)C(=Cc3ccc([N+](=O)[O-])o3)C2=O)cc1 , give the reported normalized SmoIP GFP fluorescence.
Result: 8.94

Q: Consider next the compound COc1cc(NC(=O)c2ccccn2)ccc1Cl in the same way.
Result: -1.74

* * *

- System: Drosophila S2 cl14 SmoIP sensor cells
- Method description: normalized SmoIP GFP fluorescence (untreated unstimulated = 0%, untreated Hh-stimulated = 100%); higher = more Smo activation sensor fluorescence
- Measurement conditions: stimulation: Hh conditioned medium (+Hh); compound concentration: 2 uM; 24 h
Metric name: normalized SmoIP GFP fluorescence
State the result as a value with its unit after it.

Reference set, count: 3
>  <Compound>
CC(C)OC(=O)C1=CN(C(=O)c2ccc(F)c(F)c2)CC(C)(C)c2c1[nH]c1ccccc21

>  <Observed result>
117%

$$$$
>  <Compound>
COc1ccc(-c2cc3c(C)nc(N)nc3n([C@H]3CC[C@H](OCCO)CC3)c2=O)cn1

>  <Observed result>
87.2%

$$$$
>  <Compound>
CCOc1ccc(NC(C)=O)cc1

>  <Observed result>
131%

$$$$

Q: Param readout= normalized SmoIP GFP fluorescence; system= Drosophila S2 cl14 SmoIP sensor cells; entry= CC1(C)CNc2cc(NC(=O)c3cccnc3NCc3ccncc3)ccc21 [Motesanib-Diphosphate] ; returns value.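 Further: flow cytometry read-out as median GFP intensity of gated cells, compounds added 30 min before Hh-conditioned or mock medium, mock-treated cells serving as unstimulated baseline.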
Result: 136%

Q: Consider next the compound CN1CCN(c2nc(C3=C(c4c[nH]c5ccccc45)C(=O)NC3=O)c3ccccc3n2)CC1 in the same way.
Result: 131%
